- Target: Tyrosyl-tRNA synthetase, putative (Trypanosoma cruzi (strain CL Brener)) (UniProt Q4DSP6)
- Sequence (Q4DSP6 as listed by the source): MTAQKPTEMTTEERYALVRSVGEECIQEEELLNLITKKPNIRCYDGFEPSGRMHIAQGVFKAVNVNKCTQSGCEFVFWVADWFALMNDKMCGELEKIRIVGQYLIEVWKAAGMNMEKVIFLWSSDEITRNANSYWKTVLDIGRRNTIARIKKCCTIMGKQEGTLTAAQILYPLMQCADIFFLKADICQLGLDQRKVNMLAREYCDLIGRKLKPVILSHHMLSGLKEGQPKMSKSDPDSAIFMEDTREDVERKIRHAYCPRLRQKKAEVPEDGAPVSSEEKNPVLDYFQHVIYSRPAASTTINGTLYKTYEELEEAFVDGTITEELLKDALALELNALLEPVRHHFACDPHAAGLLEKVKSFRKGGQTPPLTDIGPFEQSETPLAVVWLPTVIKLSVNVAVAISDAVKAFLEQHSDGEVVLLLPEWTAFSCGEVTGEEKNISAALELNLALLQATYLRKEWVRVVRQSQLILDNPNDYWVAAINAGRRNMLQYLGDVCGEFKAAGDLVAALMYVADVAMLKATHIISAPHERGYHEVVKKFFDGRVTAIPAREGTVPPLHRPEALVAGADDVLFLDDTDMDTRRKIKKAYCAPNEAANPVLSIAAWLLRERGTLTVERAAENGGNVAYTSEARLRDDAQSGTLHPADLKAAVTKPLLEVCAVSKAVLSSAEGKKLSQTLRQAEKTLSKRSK
- Assay Remarks: Trypanosoma cruzi tyrosyl tRNA synthetase (TcYRS) _High Tyrosine SOP
- Format: functional
- Design: scale not given: in the data most compounds retested in dose-response had high values
- Applied Conditions: 30 µM
Rule: label 1 for Percent Effect not less than 7%, label 0 for anything less.

Answered examples (4):
# Compound, Label Value
records = [
    ("Cc1nn(C)c(Cl)c1CNCc1cccnc1N1CCN(C)CC1", "label 0"),
    ("COCC(O)CNC(=O)c1cnc(-c2ccccc2)nc1O (configuration not stated)", "label 1"),
    ("COC(=O)CCN1CCCC1c1cccc2c1OCCO2 (configuration not stated)", "label 0"),
    ("CC(C)c1ncc2c(n1)CN(Cc1nc(-c3ccoc3)no1)CC2", "label 1"),
]

stdin: # check: Percent Effect of CC(=O)N1CCCC1c1nccc(C)n1 (configuration not stated) is greater than or equal to 7%
stdout: label 0
